# system.tested: Cytochrome P450 26A1 (Homo sapiens)
# Sequence (O43174 whole entry): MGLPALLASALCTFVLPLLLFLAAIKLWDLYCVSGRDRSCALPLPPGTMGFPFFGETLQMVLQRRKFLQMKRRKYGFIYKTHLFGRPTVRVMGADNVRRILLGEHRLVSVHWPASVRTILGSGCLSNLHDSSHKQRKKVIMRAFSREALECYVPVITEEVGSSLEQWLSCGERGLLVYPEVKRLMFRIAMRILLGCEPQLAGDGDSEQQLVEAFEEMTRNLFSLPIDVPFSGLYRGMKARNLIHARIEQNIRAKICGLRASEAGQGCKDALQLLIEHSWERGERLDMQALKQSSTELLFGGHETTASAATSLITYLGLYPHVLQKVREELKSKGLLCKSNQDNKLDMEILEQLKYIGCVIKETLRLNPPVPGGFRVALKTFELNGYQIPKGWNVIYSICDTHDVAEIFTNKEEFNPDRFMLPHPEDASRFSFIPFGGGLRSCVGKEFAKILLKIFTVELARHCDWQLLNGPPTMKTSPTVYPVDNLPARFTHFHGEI
metric: IC50 (nM)
State the answer as a number, implicitly in nM.

Prompt: Can you look up the measured IC50 of COC(=O)C(C)(C)C(c1ccc(Nc2ccc3ccccc3c2)cc1)n1ccnc1 (stereo unspecified) for me?
Response: 30
